pIC50: recorded values
target_of_assay: Plasma Kallikrein (Homo sapiens (Human), UniProt P03952)
Sequence (P03952 391-638): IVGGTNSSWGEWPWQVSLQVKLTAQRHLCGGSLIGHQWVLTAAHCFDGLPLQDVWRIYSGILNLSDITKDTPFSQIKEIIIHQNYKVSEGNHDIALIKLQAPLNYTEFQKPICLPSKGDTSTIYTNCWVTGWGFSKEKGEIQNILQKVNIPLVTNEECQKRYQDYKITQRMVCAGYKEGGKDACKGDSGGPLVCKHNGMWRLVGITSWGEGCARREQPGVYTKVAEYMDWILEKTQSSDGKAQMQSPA
Sequence (P03952 20-390 partner): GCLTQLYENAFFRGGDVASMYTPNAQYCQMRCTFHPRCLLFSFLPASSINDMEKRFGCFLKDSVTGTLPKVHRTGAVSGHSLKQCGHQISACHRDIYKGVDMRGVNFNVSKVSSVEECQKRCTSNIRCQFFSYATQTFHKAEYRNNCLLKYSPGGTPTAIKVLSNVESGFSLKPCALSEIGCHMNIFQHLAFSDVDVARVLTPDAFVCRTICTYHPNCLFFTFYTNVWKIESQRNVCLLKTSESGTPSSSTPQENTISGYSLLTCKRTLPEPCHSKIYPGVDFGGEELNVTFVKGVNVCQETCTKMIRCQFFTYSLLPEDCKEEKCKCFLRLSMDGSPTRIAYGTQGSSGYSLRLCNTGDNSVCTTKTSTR
experiment_description: Determination of related protease inhibition: Plasma Kallikrein (fluorogenic substrate at Km)
condition_summary: 25° C., read-out: IC50 (human PKal)
pIC50: −log10 of the molar value.

Field: example entries. Status: answers known.
Exercise: Given CN1CCC(CNc2ccc(CNc3ccc4cnccc4c3Cl)cn2)CC1 , state its recorded pIC50.
Key: < 4.40

Exercise: // next record Nc1ncc(Cl)c2cc(NCc3ccnc(N4CCn5ccnc5C4)c3)ccc12 [Example 5437]
Key: < 4.40

Exercise: // next record Nc1ncc(Cl)c2cc(NCc3ccnc(OCC4CCCn5ccnc54)c3)ccc12 (centres unmarked) [Example 4443]
Key: < 4.40

Exercise: // next record Cc1cnc2n1CCC(COc1cc(CNc3cccc4c(N)nccc34)ccn1)C2 (single isomer, unassigned) [Example 4445]
Key: 5.00 to 5.52

Exercise: // next record Cc1cn2c(n1)CC(COc1cc(CNc3cccc4c(N)nccc34)ccn1)CC2 (single isomer, unassigned) [Example 4446]
Key: 5.00 to 5.52

New cases:
Exercise: Given CN1CCC(COc2cc(CNc3ccc4cnccc4c3F)ccn2)CC1 , state its recorded pIC50.
Key: < 4.00

Exercise: // next record CN1CCC(CNc2ccc(CNc3cnc4ccccc4c3)cn2)CC1
Key: < 4.00

Exercise: // next record CNC(=O)c1cc(NCc2ccc(NCC3CCN(C)CC3)nc2)cc2c(Cl)c[nH]c12
Key: < 4.40
